Target: Pseudomonas aeruginosa LpxC enzyme (Pseudomonas aeruginosa (strain ATCC 15692 / DSM 22644 / CIP 104116 / JCM 14847 / LMG 12228 / 1C / PRS 101 / PAO1), UniProt P47205)
Test: biochemical
Format: biochemical
Conditions: inhibitory activity on Pseudomonas aeruginosa LpxC enzyme, class symbols A/B/C; read-out: Enzyme inhibitory activity
metric_name: IC50

1) CNC(=O)C(C(=O)NO)N(C)C(=O)c1ccc(-c2ccc(OC)c(F)c2)cc1 (centres unmarked) : < 10 nM

Required: IC50, one value per molecule below.
1. CNC(=O)C(C(=O)NO)N(CCOC)C(=O)c1ccc(-c2ccccc2)cc1 (centres unmarked)
2. CNC(=O)C(C(=O)NO)N(C)C(=O)c1ccc(/C=C/c2ccccc2)cc1 (centres unmarked)

Result:
["10 to 100 nM", "10 to 100 nM"]
